// values below are reported GI50
# Tested on: PSN1
# experimental_details: Cytotoxicity against human PSN1 cells assessed as inhibition of cell growth
# Type: functional
Use µM as the unit, but write only the number.

For the molecule C/C=C/CCC(=O)C[C@@H](O)CCO , what GI50 is on record?
54

Name the recorded GI50 for C/C=C/CCC(=O)C[C@@H](O)CCO[C@]1(CC/C=C/C)C[C@@H](O)CCO1 .
28

Look up GI50 for this molecule: C/C=C/C=C/C(=O)C[C@H](CCO)OC
50

Form field: reported GI50 of C/C=C/C=C/C(=O)C[C@@H](O)CCO
54

Bench note: what GI50 did C/C=C/C=C/C(=O)CC(CCO)OCC[C@H](O)CC(=O)/C=C/C=C/C (stereo partly specified) show?
29

Name the recorded GI50 for C/C=C/C=C/C(=O)CC(CCO)OCC[C@H](O)CC(=O)CC/C=C/C (stereo partly specified) .
28
